TGT: Ubiquitin carboxyl-terminal hydrolase 1/WD repeat-containing protein 48 (Homo sapiens, UniProt O94782)
ASSAY NAME: Inhibition of human USP1/UAF1 complex using Ub-Rho as substrate preincubated for 30 mins followed by substrate addition by fluorescence-based HTS assay
Assay type: protein-complex assay
pIC50: −log10 of the molar value.

COMPOUND: O=C1c2ccccc2C(=O)C2OC(c3ccc(F)cc3)=NC12 (stereo unspecified)
pIC50: 6.06

====

TGT: DNA polymerase kappa (Homo sapiens, UniProt Q9UBT6)
Sequence (Q9UBT6 whole entry, the tested form may be a part): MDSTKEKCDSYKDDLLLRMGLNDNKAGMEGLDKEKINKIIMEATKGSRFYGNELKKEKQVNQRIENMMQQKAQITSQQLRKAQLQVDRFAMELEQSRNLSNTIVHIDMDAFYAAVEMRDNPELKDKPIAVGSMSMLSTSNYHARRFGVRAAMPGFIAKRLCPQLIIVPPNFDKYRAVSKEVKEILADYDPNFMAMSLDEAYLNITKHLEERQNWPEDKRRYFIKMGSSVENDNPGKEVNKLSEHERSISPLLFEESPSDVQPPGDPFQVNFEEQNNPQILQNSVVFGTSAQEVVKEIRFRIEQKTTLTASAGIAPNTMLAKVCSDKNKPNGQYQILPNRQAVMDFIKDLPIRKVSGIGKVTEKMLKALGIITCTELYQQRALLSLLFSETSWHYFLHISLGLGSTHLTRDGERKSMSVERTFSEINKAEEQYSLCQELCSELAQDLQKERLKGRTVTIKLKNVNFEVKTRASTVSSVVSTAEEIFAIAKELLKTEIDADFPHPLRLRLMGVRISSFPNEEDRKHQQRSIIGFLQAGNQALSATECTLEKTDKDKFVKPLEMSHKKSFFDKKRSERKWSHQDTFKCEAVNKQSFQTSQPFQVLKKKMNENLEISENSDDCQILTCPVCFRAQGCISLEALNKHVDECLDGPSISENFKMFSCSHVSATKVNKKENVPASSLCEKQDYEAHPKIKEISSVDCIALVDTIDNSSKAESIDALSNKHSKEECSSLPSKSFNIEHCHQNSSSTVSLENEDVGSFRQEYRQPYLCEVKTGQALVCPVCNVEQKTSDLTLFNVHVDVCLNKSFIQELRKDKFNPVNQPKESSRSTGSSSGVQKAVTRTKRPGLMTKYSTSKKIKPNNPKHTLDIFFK
ASSAY NAME: Inhibition of human DNA polymerase kappa (19 to 526 residues)-mediated TLS past acrolein derived ring-opened reduced form of gamma-HOPdG lesions preincubated for 15 mins followed by DNA substrate addition measured after 30 mins in presence of dCTP and dGTP by radioactive gel-based primer extension assay
pIC50: −log10 of the molar value.

MOLECULE: CCOc1nc2cccc(C(=O)OC(C)OC(=O)OC3CCCCC3)c2n1Cc1ccc(-c2ccccc2-c2nnn[nH]2)cc1 (stereo unspecified)
pIC50: 5.25

====

TGT: DNA polymerase iota (Homo sapiens)
Sequence (Q9UNA4 whole entry): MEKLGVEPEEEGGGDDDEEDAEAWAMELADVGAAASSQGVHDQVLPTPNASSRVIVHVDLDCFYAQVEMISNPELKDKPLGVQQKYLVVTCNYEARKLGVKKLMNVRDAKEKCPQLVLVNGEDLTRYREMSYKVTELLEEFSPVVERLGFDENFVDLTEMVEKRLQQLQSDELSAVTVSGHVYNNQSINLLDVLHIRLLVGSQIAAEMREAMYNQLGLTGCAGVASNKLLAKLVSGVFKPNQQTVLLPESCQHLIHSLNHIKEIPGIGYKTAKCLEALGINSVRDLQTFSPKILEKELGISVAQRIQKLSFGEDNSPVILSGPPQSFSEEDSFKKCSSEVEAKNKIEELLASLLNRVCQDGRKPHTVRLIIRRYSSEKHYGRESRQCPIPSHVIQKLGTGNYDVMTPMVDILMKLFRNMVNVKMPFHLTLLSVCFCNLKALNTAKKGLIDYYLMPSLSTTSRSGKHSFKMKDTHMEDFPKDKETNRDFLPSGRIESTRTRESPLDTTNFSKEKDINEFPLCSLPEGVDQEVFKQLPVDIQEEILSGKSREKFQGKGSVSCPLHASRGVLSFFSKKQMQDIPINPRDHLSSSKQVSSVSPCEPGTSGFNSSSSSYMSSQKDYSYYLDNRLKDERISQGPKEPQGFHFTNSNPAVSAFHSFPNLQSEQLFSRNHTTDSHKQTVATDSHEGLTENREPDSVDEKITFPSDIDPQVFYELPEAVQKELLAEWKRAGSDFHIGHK
ASSAY NAME: Inhibition of human recombinant DNA polymerase iota expressed in Baculovirus expression system using TAMRA/BHQ-2-labeled primer/template measured at 2 to 6 mins by reporter-strand displacement assay
RESULT TYPE: IC50 (nM)

COMPOUND: O=c1oc2c(O)c(O)cc3c(=O)oc4c(O)c(O)cc1c4c23 [ELLAGIC ACID]
RESULT TYPE: IC50
MEASURED RESULT: 62

COMPOUND: O=C(O)C1=CC(=C(c2ccc(O)c(C(=O)O)c2)c2ccc(O)c(C(=O)O)c2)C=CC1=O [AURINTRICARBOXYLIC ACID]
RESULT TYPE: IC50
MEASURED RESULT: 75

====

TGT: Ubiquitin carboxyl-terminal hydrolase 1/WD repeat-containing protein 48 (Homo sapiens, UniProt O94782+Q8TAF3)
Sequence (O94782 whole entry): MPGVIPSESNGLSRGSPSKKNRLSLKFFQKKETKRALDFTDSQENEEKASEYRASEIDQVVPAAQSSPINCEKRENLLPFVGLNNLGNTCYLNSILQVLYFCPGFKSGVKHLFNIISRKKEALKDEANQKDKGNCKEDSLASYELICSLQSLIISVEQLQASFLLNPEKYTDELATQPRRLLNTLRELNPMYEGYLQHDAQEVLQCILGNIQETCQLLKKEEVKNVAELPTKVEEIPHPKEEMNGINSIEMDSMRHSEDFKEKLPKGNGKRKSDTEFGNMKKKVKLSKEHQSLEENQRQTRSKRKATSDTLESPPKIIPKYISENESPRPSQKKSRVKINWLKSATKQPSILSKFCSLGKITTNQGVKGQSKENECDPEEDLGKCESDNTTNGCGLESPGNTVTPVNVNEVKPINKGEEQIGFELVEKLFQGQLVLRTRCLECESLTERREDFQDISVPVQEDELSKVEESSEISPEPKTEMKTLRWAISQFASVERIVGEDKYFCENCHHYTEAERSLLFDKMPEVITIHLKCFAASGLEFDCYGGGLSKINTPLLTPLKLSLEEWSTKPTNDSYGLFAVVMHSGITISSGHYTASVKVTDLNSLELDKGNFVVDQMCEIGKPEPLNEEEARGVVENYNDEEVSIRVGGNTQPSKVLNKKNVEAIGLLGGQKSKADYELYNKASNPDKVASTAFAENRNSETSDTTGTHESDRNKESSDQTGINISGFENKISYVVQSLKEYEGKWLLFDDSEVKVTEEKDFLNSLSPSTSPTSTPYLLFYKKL
Sequence (Q8TAF3 whole entry): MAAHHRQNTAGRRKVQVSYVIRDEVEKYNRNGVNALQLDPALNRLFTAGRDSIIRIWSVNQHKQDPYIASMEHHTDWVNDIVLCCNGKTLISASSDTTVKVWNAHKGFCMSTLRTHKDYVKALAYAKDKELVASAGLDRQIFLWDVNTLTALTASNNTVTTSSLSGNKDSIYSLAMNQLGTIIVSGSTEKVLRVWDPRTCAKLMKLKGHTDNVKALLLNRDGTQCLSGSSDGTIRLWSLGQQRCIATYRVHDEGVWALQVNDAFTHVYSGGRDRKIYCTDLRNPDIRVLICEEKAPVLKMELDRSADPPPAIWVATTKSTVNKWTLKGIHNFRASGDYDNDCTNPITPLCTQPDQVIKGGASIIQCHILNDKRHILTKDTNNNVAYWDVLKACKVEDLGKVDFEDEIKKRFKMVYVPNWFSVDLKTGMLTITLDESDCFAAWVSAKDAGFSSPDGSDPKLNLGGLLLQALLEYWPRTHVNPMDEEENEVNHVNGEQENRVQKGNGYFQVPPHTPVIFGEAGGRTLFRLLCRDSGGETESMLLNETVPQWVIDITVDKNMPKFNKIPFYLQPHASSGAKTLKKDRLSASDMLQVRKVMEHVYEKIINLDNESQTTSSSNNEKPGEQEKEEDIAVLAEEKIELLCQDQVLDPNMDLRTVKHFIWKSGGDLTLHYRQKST
ASSAY NAME: Inhibition of human USP1/UAF1 complex using Ub-Rho as substrate by qHTS assay
pIC50: −log10 of the molar value.
RESULT TYPE: pIC50

COMPOUND: O=c1[nH]c2ccccc2n1C1CCN(CCCC(c2ccc(F)cc2)c2ccc(F)cc2)CC1 [PIMOZIDE]
MEASURED RESULT: 5.70
--
COMPOUND: CC(=O)c1c(O)c(C)c(O)c(Cc2c(O)c3c(c(C(=O)/C=C/c4ccccc4)c2O)OC(C)(C)C=C3)c1O
MEASURED RESULT: 5.10
--
COMPOUND: CC(C)(Sc1ccc(CCN(CCCCC2CCCCC2)C(=O)NC2CCCCC2)cc1)C(=O)O
MEASURED RESULT: 5.30
--
COMPOUND: CN1CCN(CCCN2c3ccccc3Sc3ccc(C(F)(F)F)cc32)CC1
MEASURED RESULT: 5.10
